test.details: Toxicity liver stage against HepG2, at 10uM
Format: cell-based
Design: test concentration 10 uM, cell line HepG2-A16-CD81EGFP
recorded.conditions: human, HepG2-A16-CD81EGFP cells; read-out: INHIBITION
readout.type: cytotoxicity at 10 µM (%)
All answers are understood in %, so give the number only.

// below: answered compounds
compound	readout.type	unit.name	test.result
COc1ncccc1NC(=O)N(C1CC1)C(C)C(C)C (configuration not stated)	cytotoxicity at 10 µM	%	8.42
Cc1nc(Nc2nccs2)cc(C2CCCN2)n1 (configuration not stated)	cytotoxicity at 10 µM	%	63
CSc1nnc(C2CCN(C(=O)N3CCCC3)CC2)n1C	cytotoxicity at 10 µM	%	2.11

The compound listed as CC(C)CC(=O)N1CCCn2cnc(CNS(C)(=O)=O)c2C1 shows cytotoxicity at 10 µM equal to -1.22

The compound listed as CN(C)c1ncc2c(n1)C1(CCN(Cc3cccnc3)C1)COC2 (configuration not stated) shows cytotoxicity at 10 µM equal to 9.05

The compound listed as CCC(CNC(=O)c1ccc(=O)[nH]n1)N1CCc2ccccc2C1 (configuration not stated) shows cytotoxicity at 10 µM equal to -7.9

* * *

test.details: Toxicity liver stage against HepG2, at 10uM
Format: cell-based
Parameters: test concentration 10 uM, cell line HepG2-A16-CD81EGFP
recorded.conditions: human, HepG2-A16-CD81EGFP cells; read-out: INHIBITION
readout.type: cytotoxicity at 10 µM (%)
All answers are understood in %, so give the number only.

// below: answered compounds
compound	cytotoxicity at 10 µM / %
COCC(=O)N[C@H](C)c1onc(-c2ccccc2)c1C(=O)O	0.179
CC(=O)NCCNC(=O)CN1CCCC(Cn2cncn2)C1 (configuration not stated)	-18.9
CN1C(=O)COc2ccc(C(=O)Cn3cnc4ccsc4c3=O)cc21	8.69
CC1CCC(O)(CSc2nnnn2C)CC1 (configuration not stated)	-8.03
Cc1cc(C)cc(C(=O)NCc2ncnn2C)c1	4.64

The compound listed as CCN1C[C@@H]2C[C@H](C(=O)Nc3ccccc3)[C@H](C1)O2 shows cytotoxicity at 10 µM equal to -76.4

The compound listed as Cc1nc(NCCN2CCCC2=O)cc(C2CN(C(C)C)CCO2)n1 (configuration not stated) shows cytotoxicity at 10 µM equal to 3.88

* * *

test.details: Toxicity liver stage against HepG2, at 10uM
Assay type: cell-based
Parameters: test concentration 10 uM, cell line HepG2-A16-CD81EGFP
recorded.conditions: human, HepG2-A16-CD81EGFP cells; read-out: INHIBITION
cytotoxicity at 10 µM overview
All answers are understood in %, so give the number only.

// below: answered compounds
compound	test.result
COCCc1noc(C2CCN(C(=O)Nc3cccs3)CC2)n1	-10.6
COc1cccc(-n2ccc3nc(N4CCCC4)ncc3c2=O)c1	5.92
CN(CCO)Cc1nnc(C2CCN(C(=O)C(C)(C)C)CC2)n1C	22.6
Cc1nc(C2CCCN2CC(=O)NCCc2ccsc2)no1 (stereo unspecified)	-9.34

The compound listed as CSCC[C@H](NC(=O)Cn1ccc2c(Br)cccc21)C(=O)O shows cytotoxicity at 10 µM equal to -2.94

The compound listed as Fc1cccc(Cl)c1Cn1ncnc1CSCCN1CCCC1 shows cytotoxicity at 10 µM equal to -0.454
